- Assayed system: human Siglec-2/CD22 protein (Homo sapiens)
- Sequence (P20273 20-847): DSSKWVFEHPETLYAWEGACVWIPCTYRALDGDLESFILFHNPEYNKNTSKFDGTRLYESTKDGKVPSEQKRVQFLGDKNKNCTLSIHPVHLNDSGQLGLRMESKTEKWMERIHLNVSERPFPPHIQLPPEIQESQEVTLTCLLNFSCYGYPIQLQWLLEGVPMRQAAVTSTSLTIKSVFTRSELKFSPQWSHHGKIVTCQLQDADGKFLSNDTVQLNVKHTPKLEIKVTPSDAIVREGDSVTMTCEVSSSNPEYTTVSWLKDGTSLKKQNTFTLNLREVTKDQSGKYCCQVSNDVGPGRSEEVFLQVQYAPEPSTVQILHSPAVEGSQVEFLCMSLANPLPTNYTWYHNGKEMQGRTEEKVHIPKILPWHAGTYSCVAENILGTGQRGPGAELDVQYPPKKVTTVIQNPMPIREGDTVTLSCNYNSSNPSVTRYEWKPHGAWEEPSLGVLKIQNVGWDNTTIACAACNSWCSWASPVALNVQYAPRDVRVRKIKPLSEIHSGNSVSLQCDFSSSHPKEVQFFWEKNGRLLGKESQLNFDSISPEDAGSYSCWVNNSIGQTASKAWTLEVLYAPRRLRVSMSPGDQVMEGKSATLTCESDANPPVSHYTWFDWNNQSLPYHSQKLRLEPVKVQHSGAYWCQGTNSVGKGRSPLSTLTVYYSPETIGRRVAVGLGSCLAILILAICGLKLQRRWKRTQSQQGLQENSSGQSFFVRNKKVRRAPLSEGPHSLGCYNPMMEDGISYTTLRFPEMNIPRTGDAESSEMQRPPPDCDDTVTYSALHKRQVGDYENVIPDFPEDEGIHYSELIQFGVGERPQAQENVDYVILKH
- Protocol notes: SPR binding affinity to human CD22
- Cond: steady-state analysis
Property measured: Kd

Observe how each entry below is paired with its result.
C#CCOCCOCCO[C@]1(C(=O)O)C[C@H](O)[C@@H](NC(=O)CO)[C@H]([C@H](O)[C@H](O)CNC(=O)c2ccc(Cl)cc2)O1 [Compound 30] :: 1 to 10 µM
C#CCCOCCOCCO[C@]1(C(=O)O)C[C@H](O)[C@@H](NC(=O)CO)[C@H]([C@H](O)[C@H](O)CNC(=O)Cc2ccc(-c3ccc(O)cc3)cc2)O1 [Compound 83] :: < 1 µM
C#CCCOc1ccc(CO[C@]2(C(=O)O)C[C@H](O)[C@@H](NC(=O)CO)[C@H]([C@H](O)[C@H](O)CNC(=O)Cc3ccc(-c4ccc(O)cc4)cc3)O2)cc1O [Compound 73] :: < 1 µM
CC(=O)NCCOCCOCCOCCOCc1cn(CCOCCOCCO[C@]2(C(=O)O)C[C@H](O)[C@@H](NC(=O)CO)[C@H]([C@H](O)[C@H](O)CNC(=O)Cc3ccc(Cl)cc3)O2)nn1 [Cpd. 260] :: 1 to 10 µM

Continue with the next compound.
Exam item: Any idea what Kd was measured for C#CCOCCCCCCO[C@]1(C(=O)O)C[C@H](O)[C@@H](NC(=O)C(O)CO)[C@H]([C@H](O)[C@H](O)CNC(=O)Cc2ccc(Cl)cc2)O1 (some centres unmarked) [Compound 210] ?
Marked response: 1 to 10 µM
